biological target: Bcl-2 protein (Recombinant Human Bcl-2 Protein) (Homo sapiens, UniProt P10415); construct: purchased Novus NBP2-34889; assay: Binding evaluation of mixture library compounds to Bcl-2 using AS-MS (affinity selection mass spectrometry); settings: n = 2
Sequence (P10415 whole entry): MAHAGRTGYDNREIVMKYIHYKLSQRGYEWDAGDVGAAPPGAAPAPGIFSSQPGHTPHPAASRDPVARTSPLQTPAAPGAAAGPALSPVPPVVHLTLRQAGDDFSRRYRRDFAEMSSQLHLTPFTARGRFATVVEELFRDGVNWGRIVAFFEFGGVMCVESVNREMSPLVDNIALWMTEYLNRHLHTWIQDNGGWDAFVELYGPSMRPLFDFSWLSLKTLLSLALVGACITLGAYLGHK
value_type: ASMS ratio (%)

Sample answers from the record:
Kindly indicate its recorded ASMS ratio (%). Item: CCOc1cccc(C#Cc2ccccc2C(=O)N2CCN(c3ccc(C(=O)NS(=O)(=O)c4ccc(NCCSc5ccccc5)c(C(F)(F)F)c4)cc3)CC2)c1
0.0

State, in one line, measured ASMS ratio (%) of CCOc1cncc(-c2cc(CN3CCN(c4ccc(C(=O)NS(C)(=O)=O)cc4)CC3)cc(OC(F)(F)F)c2)c1
0.0

Please give the documented ASMS ratio (%) of CCOc1cncc(-c2ccc(CN3CCN(c4ccc(C(=O)NS(=O)(=O)c5ccc(NCCSc6ccccc6)c(C(F)(F)F)c5)cc4)CC3)c(CC)c2)c1
0.0

Assign ASMS ratio (%) to the following record: CCOc1cncc(C#Cc2ccccc2CN2CCN(c3ccc(C(=O)NS(=O)(=O)CCC(F)(F)F)cc3)CC2)c1
0.0

Note ASMS ratio (%) for the compound shown: CCOc1cccc(C#Cc2cncc(C(=O)N3CCN(c4ccc(C(=O)NS(=O)(=O)c5ccc(NCCSc6ccccc6)c(C(F)(F)F)c5)cc4)CC3)c2)c1
4.8

a = CCOc1cncc(-c2ccc(CN3CCN(c4ccc(C(=O)NS(=O)(=O)CCC(F)(F)F)nn4)CC3)c3ccccc23)c1
b = CCOc1cccc(-c2cnn(-c3cc(C(=O)N4CCN(c5ccc(C(=O)NS(=O)(=O)CCC(F)(F)F)cc5)CC4)cc(C(F)(F)F)c3)c2)c1
Of the pair a and b , name the member with the lesser recorded ASMS ratio (%). Refer to your chosen item by its label in the answer.
a
(a: 0.0%, b: 0.1%)

----------
molecular target: Bcl-2 protein (Recombinant Human Bcl-2 Protein) (Homo sapiens, UniProt P10415); construct: purchased Novus NBP2-34889; assay: Binding evaluation of mixture library compounds to Bcl-2 using AS-MS (affinity selection mass spectrometry); details: AS-MS on the mixture of 1200 library compounds; ASMS Ratio(%)=(A−C)/B×100; replicate n = 2
value_type: ASMS ratio (%) n = 2

Given CCOc1cccc(-c2ccc(CN3CCN(c4ccc(C(=O)N(C)CC56CC7CC(CC(C7)C5)C6)nn4)CC3)c(CC)c2)c1 , respond with its ASMS ratio (%) n = 2.
−16.0

a = CCOc1cncc(C#Cc2cncc(C(=O)N3CCN(c4ccc(C(=O)N(C)CC56CC7CC(CC(C7)C5)C6)cc4)CC3)c2)c1
b = CCOc1cccc(-c2cc(C(=O)N3CCN(c4ccc(C(=O)Nc5ccc(OC)cc5)nn4)CC3)cc(C(F)(F)F)c2)c1
c = CCOc1cncc(C#Cc2ccccc2C(=O)N2CCN(c3ccc(C(=O)Nc4ccc(OC)cc4)nn3)CC2)c1
d = CCOc1cccc(-c2ccc(C(=O)N3CCN(c4ccc(C(=O)N(C)CC56CC7CC(CC(C7)C5)C6)cc4)CC3)c3ccccc23)c1
e = CCOc1cccc(-c2cc(OC)c(CN3CCN(c4ccc(C(=O)Nc5ccc(OC)cc5)nn4)CC3)c(OC)c2)c1
Sort (5 compounds) by ASMS ratio (%) n = 2: min first. Labels, requested order.
a, e, b, c, d
